Assay: Cytotoxicity MTT assay (HELAM)
Format: cell-based, Human
Conditions: human, HelaM cells, read-out: HELAM (222.125) CC50
experimentalReadout: CC50 at 72 h

The following compounds have reported results that may help.
compound: O=C1Nc2ncc(/C=C/C(=O)N3CC4C=C(c5ccccc5)CC4C3)cc2Cn2cncc21 (stereo not shown)
experimentalReadout: CC50 at 72 h
measured: 6.78 µg/mL

compound: Cc1cncc(C(=O)Nc2ccc(/C=C/C(=O)N3CC4C=C(c5ccccc5)CC4C3)cn2)c1 (stereo not shown)
experimentalReadout: CC50 at 72 h
measured: > 4.5 µg/mL

compound: O=C(Cc1ccncc1)Nc1ccc(/C=C/C(=O)N2CC3C=C(c4ccccc4)CC3C2)cn1 (stereo not shown)
experimentalReadout: CC50 at 72 h
measured: > 11.3 µg/mL

compound: CC(=O)Nc1ccc(/C=C/C(=O)N2CC3C=C(c4ccccc4)CC3C2)cn1 (stereo not shown)
experimentalReadout: CC50 at 72 h
measured: > 9.38 µg/mL

compound: CC(=O)N1CCN2C(=O)c3cc(/C=C/C(=O)N4CC5C=C(c6ccccc6)CC5C4)cnc3NC(=O)C2C1 (stereo not shown)
experimentalReadout: CC50 at 72 h
measured: > 12.9 µg/mL

Batch request: CC50 at 72 h for each of the following compounds.
1. CN1CCN2C(=O)c3cc(/C=C/C(=O)N4CC5C=C(c6ccccc6)CC5C4)cnc3NC(=O)C2C1 (stereo not shown)
2. COc1ccc(C(=O)Nc2ccc(/C=C/C(=O)N3CC4C=C(c5ccccc5)CC4C3)cn2)c(OC)n1 (stereo not shown)
3. O=C1COCc2cc(/C=C/C(=O)N3CC4C=C(c5ccncc5)CC4C3)cnc2N1 (stereo not shown)
4. COc1cncc(C(=O)Nc2ccc(/C=C/C(=O)N3CC4C=C(c5ccnn5C)CC4C3)cn2)c1 (stereo not shown)

1: > 12.1 µg/mL; 2: 2.99 µg/mL; 3: > 10.1 µg/mL; 4: > 11.8 µg/mL

Please go through the list and note CC50 at 72 h for each compound.
1. O=C1Nc2ncc(/C=C/C(=O)N3CC4C=C(c5ccsc5)CC4C3)cc2CO1 (stereo not shown)
2. O=C(Nc1ccc(/C=C/C(=O)N2CC3C=C(c4ccccc4)CC3C2)cn1)c1ccccn1 (stereo not shown)
3. Cc1cncc(C(=O)Nc2ccc(/C=C/C(=O)N3CC4C=C(c5nccs5)CC4C3)cn2)c1 (stereo not shown)
4. COc1nc(NC(C)=O)ccc1/C=C/C(=O)N1CC2C=C(c3ccccc3)CC2C1 (stereo not shown)

> 3.93 µg/mL
7.76 µg/mL
> 11.5 µg/mL
> 10.1 µg/mL
